B1: TRIM14 (parent)
chain: YARTPTLDPDTMHARLRLSADRLT

Variants of: B1
Assay: protein stability index of a GFP-peptide fusion (GPS, HEK-293T) (PSI 1-6); higher = more stable;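 further: lentivirally expressed fusions sorted by FACS into six bins by GFP to DsRed ratio, PSI derived from sequencing read proportions per bin multiplied by bin number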
Conditions: c terminus: a fixed tail appended
propertyMeasured: protein stability index

Sample answers from the record:
YAWTPTLDPDTMHARLRLSADRLT [R3W]	1.92
LARTPTLDPDTMHARLRLSADRLT [Y1L]	3.62
YARTKTLDPDTMHARLRLSADRLT [P5K]	3.12
YARTPTLDPDTMHARYRLSADRLT [L16Y]	2.19
YSRTPTLDPDTMHARLRLSADRLT [A2S]	2.44
YARTPTLDPDTMHARWRLSADRLT [L16W]	2.56

# query: protein stability index of entry YARTPTLDPDTSHARLRLSADRLT [M12S]
3.21

# query: protein stability index of entry YAITPTLDPDTMHARLRLSADRLT [R3I]
2.57

# query: protein stability index of entry YARTPTLDPDTMHARLFLSADRLT [R17F]
2.02
